# target_desc: T1, human transferrin receptor 1 (hTfR1) (human, UniProt P02786 89-760, limits assumed)
# T1 construct: The selections used the biotinylated ECD domain of hTfR1
# assay_notes: competition ELISA, Fab
readout_kind: Kd (nM)
Write the number in nM without appending the unit.

query: # return recorded Kd for entry Fab0062 (Fab, V domains shown) VH: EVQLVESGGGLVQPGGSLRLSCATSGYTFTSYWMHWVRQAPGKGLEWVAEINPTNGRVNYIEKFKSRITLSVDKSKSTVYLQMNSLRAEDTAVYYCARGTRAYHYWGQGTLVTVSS VL: DIQLTQSPSSLSASVGDRVTITCRASDGLYSNLAWYQQKPGKAPKLLIYDAFNLASGVPSRFSGSGSGTDYTLTISSLQPEDFATYYCQHFWGTPLTFGQGTKVEIKR
result: 1.1

query: Input Fab0070 (Fab, V domains shown) VH: EVQLVESGGGLVQPGGSLRLSCATSGFTFTSYWMHWVRQAPGKGLEWVAEINPTNGRTNYIEKFKSRITLSVDKSKSTVYLQMNSLRAEDTAVYYCARGTRAYHYWGQGTLVTVSS VL: DIQLTQSPSSLSASVGDRVTITCRASDKLYSNLAWYQQKPGKAPKLLIYDATLLASGVPSRFSGSGSGTDYTLTISSLQPEDFATYYCQHFWGTPLTFGQGTKVEIKR , output reported Kd.
result: 1.11

query: Consider the binder Fab0061 (Fab, V domains shown) VH: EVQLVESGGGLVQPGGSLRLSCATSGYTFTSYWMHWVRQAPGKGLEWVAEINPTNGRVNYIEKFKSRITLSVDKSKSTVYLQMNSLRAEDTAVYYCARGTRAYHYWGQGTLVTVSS VL: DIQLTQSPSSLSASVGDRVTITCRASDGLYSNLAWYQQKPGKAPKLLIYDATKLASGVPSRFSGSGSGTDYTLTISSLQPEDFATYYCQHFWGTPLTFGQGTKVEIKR . State its measured Kd.
result: 0.95

query: Annotate the binder Fab0074 (Fab, V domains shown) VH: EVQLVESGGGLVQPGGSLRLSCATSGYTFKSYWMHWVRQAPGKGLEWVAEINPTNGRTNYIEKFKSRITLSVDKSKSTVYLQMNSLRAEDTAVYYCARGTRAYHYWGQGTLVTVSS VL: DIQLTQSPSSLSASVGDRVTITCRASDGLYSNLAWYQQKPGKAPKLLIYDAKNLASGVPSRFSGSGSGTDYTLTISSLQPEDFATYYCQHFWGTPLTFGQGTKVEIKR with its measured Kd.
result: 0.46

query: Output measured Kd for this item: Fab0072 (Fab, V domains shown) VH: EVQLVESGGGLVQPGGSLRLSCATSGYTFNSYWMHWVRQAPGKGLEWVAEINPTNGRFNYIEKFKSRITLSVDKSKSTVYLQMNSLRAEDTAVYYCARGTRAYHYWGQGTLVTVSS VL: DIQLTQSPSSLSASVGDRVTITCRASDNLYRNLAWYQQKPGKAPKLLIYDARNLASGVPSRFSGSGSGTDYTLTISSLQPEDFATYYCQHFWGTPLTFGQGTKVEIKR
result: 0.19

query: State its Kd for this binder: Fab0063 (Fab, V domains shown) VH: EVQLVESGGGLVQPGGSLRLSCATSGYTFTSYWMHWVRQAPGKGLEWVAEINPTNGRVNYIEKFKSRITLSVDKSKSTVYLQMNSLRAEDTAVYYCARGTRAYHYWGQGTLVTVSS VL: DIQLTQSPSSLSASVGDRVTITCRASDGLYSNLAWYQQKPGKAPKLLIYDATRLASGVPSRFSGSGSGTDYTLTISSLQPEDFATYYCQHFWGTPLTFGQGTKVEIKR
result: 0.67
